Catalogue of IC50 values
TARGET OR TEST SYSTEM: full-length beta-Catenin (Uniprot ID P35222) (Homo sapiens, UniProt P35222)
Construct: 10 nM full-length beta-Catenin (Uniprot ID P35222)
MEASUREMENT NOTES: Fluorescence polarization IC50 (beta-catenin / 5FAM-TCF4 10-53 competition)
Format: binding
TEST PARAMETERS: fluorescence polarization; read-out: beta-Catenin FP IC50
Write it as a number; the unit nM goes unstated.

Worked examples follow.
CC[C@H](C)[C@@H]1NC(=O)[C@H](CC(=O)O)NC(=O)[C@]2(CC=CCCCC3(CCCC=CCCCCCC[C@@](C)(C(=O)N[C@@H](Cc4ccccc4)C(=O)N[C@@H](Cc4csc5ccccc45)C(=O)N[C@@H](CCC(N)=O)C(N)=O)NC(=O)[C@H](CCC(N)=O)NC(=O)[C@H](Cc4ccccc4)NC(=O)[C@H](C)NC(=O)[C@H](C)NC(=O)[C@H](CCC(=O)O)NC(=O)[C@H](CC(=O)O)NC3=O)NC1=O)CCCN2C(=O)c1cccnc1 (stereo partly drawn) [I-598] ... 845
CC(=O)N1CCC[C@]12CC=CCCCC1(CCCC=CCCCOC(=O)N3CC[C@@](C(=O)N[C@@H](Cc4ccsc4)C(=O)N[C@@H](Cc4csc5ccccc45)C(=O)N[C@@H](CCC(N)=O)C(N)=O)(C3)NC(=O)[C@H](CC(C)C)NC(=O)[C@H](Cc3ccccc3)NC(=O)[C@H](C)NC(=O)[C@H](C)NC(=O)[C@H](CC(=O)O)NC(=O)[C@H](CCC(N)=O)NC1=O)NC(=O)[C@H](CC(C)(C)C)NC(=O)[C@H](CC(=O)O)NC2=O (stereo partly drawn) [I-1211] ... 115

Prompt: Enter measured IC50, system full-length beta-Catenin (Uniprot ID P35222) (Homo sapiens, UniProt P35222), for the compound shown: CC(=O)N1CCC[C@]12CC=CCCCC1(CCCC=CCCCOC(=O)N3CC[C@@](C(=O)N[C@@H](Cc4ccsc4)C(=O)N[C@@H](Cc4csc5ccccc45)C(=O)N[C@@H](Cc4ccccc4)C(N)=O)(C3)NC(=O)[C@H](CC(N)=O)NC(=O)[C@H](Cc3ccccc3)NC(=O)[C@H](C)NC(=O)[C@H](C)NC(=O)[C@H]([C@@H](C)O)NC(=O)[C@H](CC(N)=O)NC1=O)NC(=O)[C@H](CC(C)(C)C)NC(=O)[C@H](CC(=O)O)NC2=O (stereo partly drawn) [I-1744]
Response: 363

====

TARGET OR TEST SYSTEM: full-length beta-Catenin (Uniprot ID P35222) (Homo sapiens)
Construct: 10 nM full-length beta-Catenin (Uniprot ID P35222)
Sequence (P35222 1-781): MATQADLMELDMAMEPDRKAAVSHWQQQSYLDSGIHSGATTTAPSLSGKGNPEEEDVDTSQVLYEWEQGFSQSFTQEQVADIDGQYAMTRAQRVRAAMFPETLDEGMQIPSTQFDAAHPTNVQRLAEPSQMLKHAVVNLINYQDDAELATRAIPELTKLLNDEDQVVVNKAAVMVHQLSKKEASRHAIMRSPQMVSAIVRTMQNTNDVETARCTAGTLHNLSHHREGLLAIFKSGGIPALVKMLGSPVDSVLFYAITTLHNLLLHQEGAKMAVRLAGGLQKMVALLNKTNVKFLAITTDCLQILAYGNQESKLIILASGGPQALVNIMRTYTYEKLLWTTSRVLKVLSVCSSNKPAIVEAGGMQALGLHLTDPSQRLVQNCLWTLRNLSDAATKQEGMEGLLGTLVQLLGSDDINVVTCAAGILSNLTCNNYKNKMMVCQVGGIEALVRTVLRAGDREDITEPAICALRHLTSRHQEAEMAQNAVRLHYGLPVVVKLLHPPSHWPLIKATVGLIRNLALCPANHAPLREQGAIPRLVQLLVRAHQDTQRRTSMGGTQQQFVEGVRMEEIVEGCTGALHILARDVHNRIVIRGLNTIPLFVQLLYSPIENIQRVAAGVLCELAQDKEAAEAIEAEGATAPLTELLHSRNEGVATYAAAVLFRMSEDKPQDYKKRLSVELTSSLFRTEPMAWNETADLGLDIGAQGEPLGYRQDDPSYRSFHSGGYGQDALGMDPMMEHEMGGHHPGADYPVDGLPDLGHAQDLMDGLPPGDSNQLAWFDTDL
MEASUREMENT NOTES: Fluorescence polarization IC50 (beta-catenin / 5FAM-TCF4 10-53 competition)
Assay type: binding
TEST PARAMETERS: fluorescence polarization; read-out: beta-Catenin FP IC50
Catalogue of IC50 values
Write it as a number; the unit nM goes unstated.

Worked examples follow.
CC(=O)N1CCC[C@]12CC=CCCCC1(CCCC=CCCCCCC[C@@](C)(C(=O)N[C@@H](Cc3ccccc3)C(=O)N[C@@H](Cc3csc4ccccc34)C(=O)N[C@@H](CCC(N)=O)C(=O)NC(C)(C)C(N)=O)NC(=O)[C@H](CC(N)=O)NC(=O)[C@H](Cc3ccccc3)NC(=O)[C@H](C)NC(=O)[C@H](C)NC(=O)[C@H](CCC(=O)O)NC(=O)[C@H](CC(=O)O)NC1=O)NC(=O)[C@H](CC(C)C)NC(=O)[C@H](CC(=O)O)NC2=O (some centres unmarked) [I-736] ... 440
CC(=O)N1CCC[C@]12CC=CCCCC1(CCCC=CCCCOC(=O)N3CC[C@@](C(=O)N[C@@H](Cc4ccccc4)C(=O)N[C@@H](Cc4csc5ccccc45)C(=O)N[C@@H](CC(=O)N4CCOCC4)C(N)=O)(C3)NC(=O)[C@H](CC(C)C)NC(=O)[C@H](Cc3ccccc3)NC(=O)[C@H](C)NC(=O)[C@H]([C@@H](C)O)NC(=O)[C@H](CCC(N)=O)NC(=O)[C@H](CC(=O)O)NC1=O)NC(=O)[C@H](CC1CCCCC1)NC(=O)[C@H](CC(N)=O)NC2=O (some centres unmarked) ... 1310
CC(=O)N1CCC[C@]12CC=CCCCC1(CCCC=CCCCOC(=O)N3CC[C@@](C(=O)N[C@@H](Cc4ccsc4)C(=O)N[C@@H](Cc4csc5ccccc45)C(=O)N[C@@H](CCC(N)=O)C(N)=O)(C3)NC(=O)[C@H](CC(N)=O)NC(=O)[C@H](Cc3ccccc3)NC(=O)[C@H](C)NC(=O)[C@H](C)NC(=O)[C@H](CCC(N)=O)NC(=O)[C@H](CCC(N)=O)NC1=O)NC(=O)[C@H](CC(C)(C)C)NC(=O)[C@H](CC(=O)O)NC2=O (some centres unmarked) ... 678
CC(=O)N(CC(=O)O)C[C@@H]1NC(=O)[C@H](CC(=O)O)NC(=O)C2(CCCC=CCCCOC(=O)N3CC[C@@](C(=O)N[C@@H](Cc4ccsc4)C(=O)N[C@@H](Cc4csc5ccccc45)C(=O)N[C@@H](CCC(N)=O)C(N)=O)(C3)NC(=O)[C@H](CC(C)C)NC(=O)[C@H](Cc3ccccc3)NC(=O)[C@H](C)NC(=O)[C@H](C)NC1=O)CCCC=CC[C@]1(CCCN1C(C)=O)C(=O)N[C@@H](CC(=O)O)C(=O)N[C@@H](CC(C)(C)C)C(=O)N2 (some centres unmarked) ... 9

Next item in the queue.
Prompt: Given the molecule CC(=O)N1CCC[C@]12CC=CCCCC1(CCCC=CCCCOC(=O)N3CC[C@@](C(=O)N[C@@H](Cc4ccsc4)C(=O)N[C@@H](Cc4csc5ccccc45)C(=O)N[C@@H](CC(N)=O)C(N)=O)(C3)NC(=O)[C@H](CC(C)C)NC(=O)[C@H](Cc3ccccc3)NC(=O)[C@H](C)NC(=O)[C@H](C)NC(=O)[C@H](CN(CC(=O)O)CC(F)(F)F)NC(=O)[C@H](CC(=O)O)NC1=O)NC(=O)[C@H](CC(C)(C)C)NC(=O)[C@H](CC(=O)O)NC2=O (some centres unmarked) , write its reported IC50.
Response: 9

====

TARGET OR TEST SYSTEM: beta-catenin/TCF4 engagement (Homo sapiens, UniProt P35222)
Construct: expressed in transfected cells; host or cells: HEK293
MEASUREMENT NOTES: Nano-BRET target engagement assay (B-cat-Halo & TCF4-Luc in HEK293 cells)
Assay type: cell-based
TEST PARAMETERS: read-out: NanoBRET Abs IC50
OBSERVABLE: pIC50
Friendly reminder that pIC50 comes from taking -log10 of the concentration in mol/L.

COc1ccccc1C[C@H](NC(=O)[C@]12CCN(C1)C(=O)OCCCC=CCCCC1(CCCC=CC[C@]3(CCCN3C(C)=O)C(=O)N[C@@H](CC(=O)O)C(=O)N[C@@H](CC(C)(C)C)C(=O)N1)C(=O)N[C@@H](CC(=O)O)C(=O)N[C@@H](CC(=O)O)C(=O)N[C@@H](C)C(=O)N[C@@H](C)C(=O)N[C@@H](Cc1ccccc1)C(=O)N[C@@H](CO)C(=O)N2)C(=O)N[C@@H](Cc1csc2ccccc12)C(=O)N[C@@H](CO)C(N)=O (stereo partly drawn) ... 4.78

Next item in the queue.
Prompt: Enter measured pIC50, system beta-catenin/TCF4 engagement (Homo sapiens, UniProt P35222), for the compound shown: CC(=O)N1CCC[C@]12CC=CCCCC1(CCCC=CCCCOC(=O)N3CC[C@@](C(=O)N[C@@H](Cc4ccsc4)C(=O)N[C@@H](Cc4csc5ccccc45)C(=O)N[C@@H](Cc4ccccc4)C(N)=O)(C3)NC(=O)[C@H](CC(C)C)NC(=O)[C@H](Cc3ccccc3)NC(=O)[C@H](C)NC(=O)[C@H](CCC(N)=O)NC(=O)[C@H](Cc3cccc(C(=O)O)c3)NC(=O)[C@H](CC(=O)O)NC1=O)NC(=O)[C@H](CC(C)(C)C)NC(=O)[C@H](CC(=O)O)NC2=O (stereo partly drawn)
Response: 4.94
